// values below are reported MIC
Test system: E. coli
Test: in vitro antibacterial activity, two-fold serial dilution in Brain-Heart Infusion Broth (MIC)
Type: cell-based
Details: Escherichia coli, overnight, anaerobic
Hi! Could you send only the number? It should be in µg/mL, unit omitted.

Solved entries (count: 5):
[
  {
    "COMPOUND": "CCN(CC)CCCS(=O)(=O)Cc1c(C(=O)NC)[n+]([O-])c2ccccc2[n+]1[O-] [NHCH3; SO2 (CH2)3 N(CH2 CH3)2; H]",
    "MIC (µg/mL)": 25
  },
  {
    "COMPOUND": "CN(C)C(=O)c1c(CS(=O)(=O)CCCN2CCCCC2)[n+]([O-])c2ccccc2[n+]1[O-] [N(CH3)2; drawing 27; H]",
    "MIC (µg/mL)": 3.12
  },
  {
    "COMPOUND": "NC(=O)c1c(CS(=O)(=O)CCO)[n+]([O-])c2ccccc2[n+]1[O-] [NH2; SO2 CH2 CH2 OH; H]",
    "MIC (µg/mL)": 12.5
  },
  {
    "COMPOUND": "NC(=O)c1c(CS(=O)(=O)CCCN2CCOCC2)[n+]([O-])c2ccccc2[n+]1[O-] [NH2; drawing 20; H]",
    "MIC (µg/mL)": 12.5
  },
  {
    "COMPOUND": "CCNC(=O)c1c(CS(=O)(=O)CCCN(C)C)[n+]([O-])c2ccccc2[n+]1[O-] [NHCH2 CH3; SO2 (CH2)3 N(CH3)2; H]",
    "MIC (µg/mL)": 12.5
  }
]

Q: Which MIC is reported with E. coli for this entry: NC(=O)c1c(CS(=O)(=O)CCCN2CCCC2)[n+]([O-])c2ccccc2[n+]1[O-] [NH2; drawing 14; H] ?
A: 12.5

Q: Can you check CNC(=O)c1c(CSCCCO)[n+]([O-])c2ccccc2[n+]1[O-] [NHMe; SCH2 CH2 CH2 OH; H] next?
A: 12.5

Q: Can you check CCCCNC(=O)c1c(CSCCO)[n+]([O-])c2ccccc2[n+]1[O-] [NHBu; SCH2 CH2 OH; H] next?
A: 50
